Consider the following compounds; for each one, report its %Inh.
system: CDC2L2; conditions: concentration: 1 μM, replicates: in singlicate; n = 1
One number for each entry, in %.

COc1cc2ncn(-c3cc(OCc4ccc(S(C)(=O)=O)cc4)c(C(N)=O)s3)c2cc1OC
14

Hey, can you go through the list below and give me %Inh for every item?
1. Cc1ccc(-c2ccc3c(ccc4sc5c(c43)NC[C@@H](C)N=C5N(C)C)n2)cn1
2. COc1cccc(C2=C(N(C)c3ccccc3)C(=O)NC2=O)c1

Solution:
[0, 27]

Hey, can you go through the list below and give me %Inh for every item?
1. Cc1nnc(-c2ccc(C)c(-c3ccc(C(=O)O)cc3)c2)o1
2. COC(=O)c1c(-c2ccccc2)c2cc(C)ccc2c(=O)n1Cc1ccccc1
3. COC(=O)c1c(-c2ccccc2)c2cc(Br)ccc2c(=O)n1Cc1ccc(NC(=O)CCC(=O)O)cc1
4. CCC(=O)c1c(-c2ccccc2)c2cc(Cl)ccc2c(=O)n1Cc1ccc(C(=O)O)cc1
5. COc1cc(Nc2nccc(N3CCC(NC(=O)C(C)c4ccc(Cl)cc4)C3)n2)cc(OC)c1OC (stereo not shown)

Solution:
0
0
0
0
13

---

system: TGFBR1; conditions: concentration: 1 μM, replicates: in singlicate; n = 1
propertyName: %Inh (%)
Answers are plain numbers, in %.

Would you please look over these solved cases?
COc1cccc(C2=C(Nc3cccc(C(=O)O)c3)C(=O)NC2=O)c1
1
COc1cc(Nc2nccc(N3CCC(NC(=O)C4COc5ccccc5O4)C3)n2)cc(OC)c1OC (stereo not drawn)
12
CCCNC(=O)Nc1ccc(Oc2ncnc3ccn(C)c23)cc1
8
Cn1c(=O)c(F)c(Nc2ccc(I)cc2F)c2c(=O)n(OC[C@H](O)CO)cnc21
20
O=C1NC(=O)C(c2ccccc2)=C1Nc1cccc(O)c1
6
CN1C(=O)C(Nc2ccccc2)=C(c2ccccc2)C1=O
22

Hey, can you go through the list below and give me %Inh for every item?
1. CCS(=O)(=O)c1ccc(OC)c(Nc2ncc(-c3ccc(F)cc3)o2)c1.Cl
2. COc1cc2nccc(Nc3ccc(OCc4ccc(NC(C)=O)cc4)cc3)c2cc1OC.Cl
3. CCC(=O)c1c(-c2ccccc2)c2cc(Cl)ccc2c(=O)n1Cc1cc(S(C)(=O)=O)n(CC(N)=O)n1

Solution:
[0, 21, 0]

---

Consider the following compounds; for each one, report its %Inh.
test system: TGFBR2; settings: concentration: 1 μM, replicates: in singlicate; n = 1
Answers are plain numbers, in %.

Would you please look over these solved cases?
O=C(Nc1n[nH]c2nc(-c3ccccc3)c(Cl)cc12)C1CC1
0
COc1cc(Nc2nccc(N3CCC(NC(=O)C4COc5ccccc5O4)C3)n2)cc(OC)c1OC (stereo not drawn)
0

Hey, can you go through the list below and give me %Inh for every item?
1. CN1C(=O)C(Nc2cc(Cl)c(O)c(Cl)c2)=C(c2ccc(Cl)cc2)C1=O
2. Cn1c(=O)c(F)c(Nc2ccc(I)cc2F)c2c(=O)n(OC[C@H](O)CO)cnc21
3. Cc1nc(N(C)[C@H]2CN(C(=O)CC#N)CC[C@H]2C)c2cc[nH]c2n1
4. CCc1nc(-c2cccc(C)c2)c(-c2ccncc2)s1
5. C[C@@H]1CC[C@H](C(=O)NC2CCCCC2)CN1c1cc(-c2ccc3c(N)n[nH]c3c2)nc(N)n1
6. Cc1cccc(-c2nc(Nc3ccc4c(cnn4C)c3)c3ccccc3n2)n1
7. Nc1nccc2scc(-c3ccc4c(c3)CCN4C(=O)Cc3ccccc3)c12

Solution:
1: 0; 2: 13; 3: 0; 4: 13; 5: 0; 6: 0; 7: 0

---

system: KIT-autoinhibited;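 note: kd values determined as follow-up on hits from a single-replicate KINOMEscan panel screen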
propertyName: Kd

Exercise: // Kd lookup, key: CN(C)c1cc(-c2ccc3c(N)n[nH]c3c2)nc(N)n1
Solution: > 10 µM

---

test system: PRKD2; details: concentration: 1 μM, replicates: in singlicate; n = 1
propertyName: %Inh
Include the unit after the number when you answer.

COc1cc2ncn(-c3cc(OCCCc4ccccc4)c(C(N)=O)s3)c2cc1OC
23%
COc1cccc(C2=C(Nc3cccc(C(=O)O)c3)C(=O)NC2=O)c1
0%
CN(C)c1cc(-c2ccc3c(N)n[nH]c3c2)nc(N)n1
0%

Hey, can you go through the list below and give me %Inh for every item?
1. COC(=O)c1c(-c2ccccc2)c2cc(Br)ccc2c(=O)n1Cc1ccc(S(C)(=O)=O)cc1
2. COc1ccc(-c2cc3c(C)nc(N)nc3n([C@H]3CC[C@H](O)CC3)c2=O)cn1

Solution:
["0%", "0%"]

---

test system: MAP4K5; details: concentration: 1 μM, replicates: in singlicate; n = 1
Consider the following compounds; for each one, report its %Inh.
Give bare numbers, in %.

Cc1nn2c(=O)cc(N3CCOCC3)nc2n1Cc1cccc(Cl)c1Cl
0
CCn1c(-c2nonc2N)nc2ccccc21
0
COc1cccc(C2=C(N(C)c3ccccc3)C(=O)NC2=O)c1
0
Nc1nc(-c2ccccc2F)c(-c2ccnc3ccccc23)s1
0

Hey, can you go through the list below and give me %Inh for every item?
1. Cc1cccc(-c2cc(-c3c[nH]nc3-c3ccccn3)ccn2)c1
2. COc1ccc(-c2coc3ccc(-c4nnc(SCc5cccc(C#N)c5)o4)cc23)cc1
3. O=C(Nc1n[nH]c2cc(-c3ccccc3F)ccc12)C1CC1
4. CCS(=O)c1ccc(-c2coc3ccc(-c4nnc(C)o4)cc23)cc1 (stereo not drawn)
5. Cc1c(Cn2c(C)nn3c(=O)cc(N4CCO[C@H](C)C4)nc23)cccc1C(F)(F)F

Solution:
[0, 12, 18, 4, 0]

---

tested on: MUSK; details: concentration: 1 μM, replicates: in singlicate; n = 1
propertyName: %Inh (%)
Answers are plain numbers, in %.

Would you please look over these solved cases?
Cl.NS(=O)(=O)c1cccc(Nc2cc(-c3ccc(F)cc3)n[nH]2)c1
0
COC(=O)c1c(-c2ccccc2)c2cc(Br)ccc2c(=O)n1Cc1ccc(S(C)(=O)=O)cc1
7
COc1ccc(-c2cc3c(C)nc(N)nc3n([C@H]3CC[C@H](OCCO)CC3)c2=O)cn1
0
COc1ccc(-c2coc3ccc(-c4nnc(SCc5cccc(C#N)c5)o4)cc23)cc1
18
COc1cccc(-n2cnc3c(N)ncnc32)c1
5

Hey, can you go through the list below and give me %Inh for every item?
1. CCC(=O)c1c(-c2ccccc2)c2cc(Cl)ccc2c(=O)n1Cc1cc(C(=O)NC2CC2)n(C)n1
2. COc1cc(OC)cc(-c2cc3cnc(N)nc3nc2NC(=O)NC(C)(C)C)c1
3. COc1ccc(Nc2nccc(N3CCC(NS(=O)(=O)c4ccc(NC(C)=O)cc4)C3)n2)cc1 (centres unmarked)

Solution:
1: 2; 2: 0; 3: 18

---

Consider the following compounds; for each one, report its %Inh.
system: p38-beta; construct: gene MAPK11; conditions: concentration: 1 μM, replicates: in singlicate; n = 1
Numbers only, in %.

COc1ccc(-n2cnc3c(N)ncnc32)cc1
21
Cc1c(Cn2c(C)nn3c(=O)cc(N4CCO[C@H](C)C4)nc23)cccc1C(F)(F)F
0
COc1cccc(C2=C(N(C)c3ccccc3)C(=O)NC2=O)c1
0
Cl.NS(=O)(=O)c1cccc(Nc2cc(-c3ccc(F)cc3)n[nH]2)c1
0
CN1C(=O)C(Nc2cc(Cl)c(O)c(Cl)c2)=C(c2ccc(Cl)cc2)C1=O
0
O=C(Nc1n[nH]c2nc(-c3ccccc3)c(Br)cc12)C1CC1
41

Hey, can you go through the list below and give me %Inh for every item?
1. CCC(=O)c1c(-c2ccccc2)c2cc(Cl)ccc2c(=O)n1Cc1cc(S(C)(=O)=O)n(CC(F)F)n1
2. COc1ccc(-c2coc3ccc(-c4nnc(SCc5cccc(C#N)c5)o4)cc23)cc1

Solution:
2
11

Exercise: // %Inh lookup, key: CCc1nc(-c2cccc(C)c2)c(-c2ccncc2)s1
Solution: 52

---

tested on: LOK; construct: gene STK10; conditions: concentration: 1 μM, replicates: in singlicate; n = 1
Consider the following molecules; for each one, report its %Inh.
Answers are plain numbers, in %.

CCc1ccc(-c2ccc3c(c2)-c2nn(C)cc2S(=O)(=O)N3C)cc1
2
COC(=O)c1c(-c2ccccc2)c2cc(Br)ccc2c(=O)n1Cc1ccc(NC(=O)CCC(=O)O)cc1
20
Nc1ncnc2c1ncn2-c1cccc(F)c1
0
COc1cc2nccc(Nc3ccc(OCc4ccc(NC(C)=O)cc4)cc3)c2cc1OC.Cl
0
O=C(Nc1n[nH]c2nc(-c3ccccc3)c(Cl)cc12)C1CC1
21
CCS(=O)c1ccc(-c2coc3ccc(-c4nnc(C)o4)cc23)cc1 (stereo not shown)
17
COc1cccc(C2=C(Nc3cccc(C(=O)O)c3)C(=O)NC2=O)c1
22
COc1cc(Nc2ccnc3ccc(C(F)(F)F)cc23)cc(OC)c1OC
18
Cl.NS(=O)(=O)c1cccc(Nc2cc(-c3ccc(F)cc3)n[nH]2)c1
0
CCC(=O)c1c(-c2ccccc2)c2cc(Cl)ccc2c(=O)n1Cc1cc(C(=O)NC2CC2)n(C)n1
19

Hey, can you go through the list below and give me %Inh for every item?
1. CCn1c(-c2ccoc2)nc2cnccc21
2. CCC(=O)c1c(-c2ccccc2)c2cc(Cl)ccc2c(=O)n1Cc1ccc(C(=O)O)cc1
3. O=C1NC(=O)C(c2ccccc2)=C1Nc1cccc(O)c1
4. Nc1n[nH]c2ncc(-c3ccccc3)cc12
5. O=C(Nc1ccc2c(c1)OCO2)NC1CCN(c2ccnc(NCc3ccc(F)cc3)n2)CC1
6. COC(=O)c1c(-c2ccccc2)c2cc(Br)ccc2c(=O)n1Cc1ccc(S(C)(=O)=O)cc1
7. CC(C)(C)c1ccc(C(=O)Nc2cn3cc(-c4ccccc4)ccc3n2)cc1

Solution:
0
0
23
0
0
6
0

Hey, can you go through the list below and give me %Inh for every item?
1. CN(C)c1cc(-c2ccc3c(N)n[nH]c3c2)nc(N)n1
2. Cc1ccc(-c2ccc3c(ccc4sc5c(c43)NC[C@@H](C)N=C5N(C)C)n2)cn1
3. Cc1ccccc1COc1cc(-n2cnc3cc(Cl)ccc32)sc1C(N)=O
4. Nc1nc(-c2ccccc2F)c(-c2ccnc3ccccc23)s1
5. COc1ccc(-c2coc3ccc(-c4nnc(SCc5cccc(C#N)c5)o4)cc23)cc1
6. C[C@@H]1CC[C@H](C(=O)NC2CCCCC2)CN1c1cc(-c2ccc3c(N)n[nH]c3c2)nc(N)n1
7. O=c1cc(N2CCOCC2)nc2n(Cc3ccc(F)c(Cl)c3)ccn12
8. O=C(NCCNc1ccnc(Nc2ccc(F)cc2)n1)Nc1ccc2c(c1)OCO2

Solution:
1. 0
2. 0
3. 46
4. 0
5. 4
6. 0
7. 0
8. 0

Hey, can you go through the list below and give me %Inh for every item?
1. CCC(=O)c1c(-c2ccccc2)c2cc(Cl)ccc2c(=O)n1Cc1cc(S(C)(=O)=O)n(CCC(C)(C)O)n1
2. Nc1ncnc2c1ncn2-c1ccc(Cl)cc1
3. O=C(Nc1n[nH]c2nc(-c3ccccc3)c(Br)cc12)C1CC1
4. Fc1cccc(CSc2nnc(-c3ccc4c(c3)CCO4)o2)c1
5. COc1cc2ncn(-c3cc(OCCCc4ccccc4)c(C(N)=O)s3)c2cc1OC
6. Cc1ccc(Oc2ccc(Nc3ncnc4cc[nH]c34)cc2C)cn1
7. COc1ccc(-c2cc3c(C)nc(N)nc3n([C@H]3CC[C@H](OCCO)CC3)c2=O)cn1

Solution:
[16, 0, 0, 9, 40, 1, 9]
